Test system: ACHN
Experiment: NCI tumour cell line growth inhibition, 48 h
Activity calls are given as the source filed them. No stated cut-off is given here; in the data, active = GI50 up to about 1.1 µM and inactive = higher.
For each record, write down the corresponding GI50.

Ask: Name the recorded GI50 of the molecule listed here: CC(C)=NNC1=NC(C)(C)P(=O)(NNc2ncccn2)S1 (stereo unspecified)
Reply: > 100 µM (inactive)

Ask: Name the recorded GI50 of the molecule listed here: O=C1C(NS(=O)(=O)c2ccccc2)=C(N(Cc2ccccc2)Cc2ccccc2)C(=O)c2ccccc21
Reply: 44.1 µM (inactive)

Ask: Name the recorded GI50 of the molecule listed here: N#C/C(=C1\OC(=O)C(c2ccc(Br)cc2)=C1O)c1ccc(Br)cc1
Reply: 15.7 µM (inactive)

Ask: Name the recorded GI50 of the molecule listed here: CCN(CC)Cc1cc(/N=N\c2c(O)ccc3c(/N=N\c4ccc(O)c(CN(CC)CC)c4)c(O)ccc23)ccc1O
Reply: 2.49 µM (inactive)

Ask: Name the recorded GI50 of the molecule listed here: [O-][n+]1onc2c1-c1nonc1CC2
Reply: 27.1 µM (inactive)

Ask: Name the recorded GI50 of the molecule listed here: O=C(Cc1nc2ccccc2s1)Nc1cccc(C(F)(F)F)c1
Reply: 13.6 µM (inactive)

Ask: Name the recorded GI50 of the molecule listed here: CCOC(=O)[C@]12C(=C(c3ccccc3)O[C@H]3C=CCC[C@H]31)C(=O)C(=O)N2c1ccccc1
Reply: > 100 µM (inactive)

Ask: Name the recorded GI50 of the molecule listed here: OC1(c2ccc(-c3ccccc3)cc2)c2ccccc2C2=NCCN21 (stereo unspecified)
Reply: 20.6 µM (inactive)

Ask: Name the recorded GI50 of the molecule listed here: CCCCOCn1c(=O)[nH]c(=O)c2ccccc21
Reply: 32.9 µM (inactive)

Ask: Name the recorded GI50 of the molecule listed here: CC(=O)OCCc1cccnc1/C=N/O
Reply: > 100 µM (inactive)

Ask: Name the recorded GI50 of the molecule listed here: N=C(N)NCCNC(=N)N
Reply: > 100 µM (inactive)

Ask: Name the recorded GI50 of the molecule listed here: NNC(=O)CCCCCCCC(=O)O
Reply: > 100 µM (inactive)

Ask: Name the recorded GI50 of the molecule listed here: Cc1[nH]c(-c2ccccc2)c2nc(N(C)C)oc(=O)c12
Reply: > 100 µM (inactive)

Ask: Name the recorded GI50 of the molecule listed here: NNC(=O)c1cc(=O)[nH][nH]1
Reply: > 100 µM (inactive)

Ask: Name the recorded GI50 of the molecule listed here: Cn1nc2ccc(Nc3cc(=O)[nH]c4ccc5nn(C)nc5c34)cc2n1
Reply: > 100 µM (inactive)

Ask: Name the recorded GI50 of the molecule listed here: CCc1cc(C)cc2[n+]1CC=C2.[O-][Cl+3]([O-])([O-])[O-]
Reply: 10.4 µM (inactive)
